Reference source: PubChem BioAssay (NCI)

- Tested on: SW-620 colon
- assay.remarks: NCI-60 one-dose screen, 48 h (100 = growth as untreated, 0 = no growth, -100 = all killed)
- stated.conditions: 10 µM unless noted
This is part of a sample that, as a whole, favours compounds with a hit. Of some 83,000 tested, about 20% had one in any assay.
experimental.readout: growth (%)
Give your result in % as a bare value.

Some compounds with known growth results, for comparison:
Exam item: What value of growth has been recorded for this entry: COc1cc2cc(C(=O)N3C[C@@H](CCl)c4c3cc(OC(=O)N(CCC(=O)N3CCN(C)CC3)[C@H]3CCSSC3)c3ccccc43)[nH]c2c(OC)c1OC
Marked response: -42.4

Exam item: What value of growth has been recorded for this entry: COc1nc(N)ncc1-c1ccc2ncnc(N3CCc4cc(F)c(Cl)cc43)c2c1
Marked response: 34.3

Exam item: What value of growth has been recorded for this entry: COc1ccccc1/C=C/c1cccc(NC(=S)NCCCCN(C)C)c1
Marked response: 5.09

API: the following record is the query input.
Exam item: What value of growth has been recorded for this entry: COc1ccc([C@H]2C(C(=O)c3ccc(Cl)cc3)C3(N[C@@H]2c2ccccc2)C(=O)Nc2ccccc23)cc1 (some centres undefined)
Marked response: 34.7

----------
- Tested on: NCI-H522 lung
- assay.remarks: NCI-60 one-dose screen, 48 h
- stated.conditions: 10 µM unless noted
This is part of a sample that, as a whole, favours compounds with a hit. Of some 83,000 tested, about 20% had one in any assay. Calls of active or inactive are those of the source. Rule for the calls: active = growth percent below 10; inactive = the rest.
Entry note: the call must match one of active, inactive

Answered examples (4):
Exam item: Which outcome did this test record for the molecule COc1sc(/C=N/NC(=O)c2[nH]c3ccc(Br)cc3c2-c2ccccc2)cc1Cl ?
Marked response: active

Exam item: Which outcome did this test record for the molecule Cc1ccc(/C=C/C(=O)c2ccc(S(=O)(=O)NCCNc3nc(N(C)C)nc(N4CCOCC4)n3)cc2)cc1 ?
Marked response: inactive

Exam item: Which outcome did this test record for the molecule COc1c(B(O)O)cc(F)cc1-c1nc2c(F)cc3[nH]ncc3c2c2c1CCCC2 ?
Marked response: active

Exam item: Which outcome did this test record for the molecule O=C(CSc1nc2ccccc2c(=O)[nH]1)NNC(=O)c1ccccc1Cl ?
Marked response: inactive

More entries:
Exam item: Which outcome did this test record for the molecule Cc1cc(C(NC(=O)C2CC3(CC(Nc4cccc5c4C(=O)N(C4CCC(=O)NC4=O)C5=O)C3)C2)c2ccc3c(c2)OC(F)(F)O3)c(O)c2ncccc12 (centres undefined) ?
Marked response: active

Exam item: Which outcome did this test record for the molecule N#C/C(=C1/C(=O)Nc2ccccc21)c1nnc(NC(=O)c2ccc(-n3c(=O)[nH]c4ccccc4c3=O)cc2)s1 ?
Marked response: inactive

Exam item: Which outcome did this test record for the molecule CCOC(=O)/C(F)=C/C1CC1CCc1ccc(OCC)cc1 (centres undefined) ?
Marked response: inactive

Exam item: Which outcome did this test record for the molecule CS(=O)(=O)c1ccc(-n2nc(C(=O)NCc3ccccc3)cc2-c2ccc(Cl)cc2)cc1 ?
Marked response: inactive

Exam item: Which outcome did this test record for the molecule CCCCCCCOc1ccc(S(=O)(=O)Nc2ccc(C)c(F)c2C(=O)O)cc1 ?
Marked response: inactive

Exam item: Which outcome did this test record for the molecule O=C(c1cc2cc(OCCCN3CCC3)ccc2[nH]1)N1C[C@@H](CCl)c2c1cc(OCc1ccccc1)c1ccccc21 ?
Marked response: active

Exam item: Which outcome did this test record for the molecule CCCCNc1ccc2c3c(cccc13)C(=O)N(c1cccc(-c3nn(-c4ccccc4)cc3-c3nc4ccccc4s3)c1)C2=O ?
Marked response: inactive

Exam item: Which outcome did this test record for the molecule COc1ccc(-c2cc(C(=O)N=Nc3c(O)[nH]c4ccc(Cl)cc34)c3ccccc3n2)cc1 ?
Marked response: active

Exam item: Which outcome did this test record for the molecule O=C1/C(=C/c2cnc(-c3ccccc3)s2)SC(=S)N1Cc1ccc2c(c1)OCO2 ?
Marked response: inactive

Exam item: Which outcome did this test record for the molecule COc1ccc(-c2nc3ccccc3n2CC(=O)N=Nc2c(O)[nH]c3ccc(OC)cc23)cc1 ?
Marked response: inactive

Exam item: Which outcome did this test record for the molecule N/C(=N\c1nc2ccccc2s1)NC(=O)Nc1ccccc1F ?
Marked response: active

----------
growth: recorded values
- System: HT29 colon
- assay.remarks: NCI-60 one-dose screen, 48 h (100 = growth as untreated, 0 = no growth, -100 = all killed)
- stated.conditions: 1 µM
Compounds without any hit were thinned out: in the full panel of roughly 83,000, 20% have a hit.
Give your result in % as a bare value.

Exam item: What value of growth has been recorded for this entry: CC/C(=C(/c1ccc(O)cc1)c1ccc(OCCN(C)C(=O)COCCOCCNC(=O)Cc2ccc3c(c2)CN([C@@H]2CCC(=O)NC2=O)C3=O)cc1)c1ccccc1
Marked response: 102

Exam item: What value of growth has been recorded for this entry: CC/C(=C(/c1ccc(O)cc1)c1ccc(OCCN(C)C(=O)CCOCCNC(=O)Cc2ccc3c(c2)CN([C@@H]2CCC(=O)NC2=O)C3=O)cc1)c1ccccc1
Marked response: 103

Exam item: What value of growth has been recorded for this entry: CC/C(=C(\c1ccc(O)cc1)c1ccc(OCCN(C)C(=O)COCCNC(=O)Cc2ccc3c(c2)CN([C@@H]2CCC(=O)NC2=O)C3=O)cc1)c1ccccc1
Marked response: 110

Exam item: What value of growth has been recorded for this entry: CC/C(=C(\c1ccc(O)cc1)c1ccc(OCCNC)cc1)c1ccccc1
Marked response: 98.7

API: the following record is the query input.
Exam item: What value of growth has been recorded for this entry: CC/C(=C(\c1ccc(O)cc1)c1ccc(OCCN(C)C(=O)CCOCCNC(=O)c2ccc3c(c2)CN([C@@H]2CCC(=O)NC2=O)C3=O)cc1)c1ccccc1
Marked response: 95

----------
- System: MDA-MB-231 breast
- assay.remarks: NCI-60 one-dose screen, 48 h (100 = growth as untreated, 0 = no growth, -100 = all killed)
- stated.conditions: 10 µM unless noted
Compounds without any hit were thinned out: in the full panel of roughly 83,000, 20% have a hit. The source made the active and inactive calls. The calls were made as follows: active = growth percent below 10; inactive = the rest.
experimental.readout: growth

Exam item: What value of growth has been recorded for this entry: COC(=O)c1cc(C(=O)C(C)(C)C)n2c3ccccc3c3ccccc3c12
Marked response: 79.4% (inactive)

Exam item: What value of growth has been recorded for this entry: Cc1ccc2c(c1)nc(-c1ccccc1)n2CC(=O)N=Nc1c(O)[nH]c2ccc(Cl)cc12
Marked response: -80.5% (active)

Exam item: What value of growth has been recorded for this entry: Nc1nn2c(-c3cc4ccccc4oc3=O)ccnc2c1N=Nc1ccccc1
Marked response: -34.8% (active)

Exam item: What value of growth has been recorded for this entry: N/C(=N\c1nc2ccc([N+](=O)[O-])cc2s1)NC(=O)Nc1ccccc1Cl
Marked response: 15% (inactive)

Exam item: What value of growth has been recorded for this entry: O=C(Cc1c(-c2ccccc2[N+](=O)[O-])n(-c2ncnc3c2c(-c2ccccc2)c(-c2ccccc2)n3Cc2ccccc2)[nH]c1=O)c1ccc(Cl)c(Cl)c1
Marked response: 33.5% (inactive)

Exam item: What value of growth has been recorded for this entry: O=C(Cn1c(-c2ccccc2)nc2ccccc21)N=Nc1c(O)[nH]c2ccc(Cl)cc12
Marked response: -42% (active)

Exam item: What value of growth has been recorded for this entry: CC(C)(C)OC(=O)N1C/C(=C\c2ccc(F)cc2)C(=O)/C(=C/c2ccc(F)cc2)C1
Marked response: -54.4% (active)

Exam item: What value of growth has been recorded for this entry: O=C(CSc1nnc(-c2ccc(-c3nc4ccc(Cl)cc4[nH]3)cc2)o1)Nc1ccc(Cl)cc1
Marked response: -51.5% (active)

API: the following record is the query input.
Exam item: What value of growth has been recorded for this entry: CCN(C(=O)CN1C(=O)/C(=C/c2ccco2)SC1=S)C1CCS(=O)(=O)C1 (centres undefined)
Marked response: 108% (inactive)

----------
- Test system: MDA-MB-468 breast
- assay.remarks: NCI-60 one-dose screen, 48 h
- stated.conditions: 10 µM unless noted
The panel holds about 83,000 compounds, 20% with a hit somewhere; the sample as a whole holds those more often. Active and inactive are the calls of the source. The calls were made as follows: active = growth percent below 10; inactive = the rest.
Entry note: the call must match one of true = active, false = inactive

Exam item: Which outcome did this test record for the compound O=C(Nc1ccc(Br)cc1)Nc1ccc(-c2ccc3c(c2)NC(=O)/C3=C\c2ccc[nH]2)cc1 ?
Marked response: true

Exam item: Which outcome did this test record for the compound COc1ccc(C2=NN(C(=O)[C@H]3[C@@H](c4ccco4)c4sc(=O)[nH]c4S[C@@H]3C)C(c3ccc4ccccc4c3)C2)cc1 (stereo not given in full) ?
Marked response: true

Exam item: Which outcome did this test record for the compound O=c1c(-c2nc(-c3ccccc3)c(-c3ccccc3)[nH]2)coc2ccc(F)cc12 ?
Marked response: false

Exam item: Which outcome did this test record for the compound CC(=O)C[n+]1cccc2c3ccccc3ccc21 ?
Marked response: true

Now look at this one.
Exam item: Which outcome did this test record for the compound CC(=O)Nc1ccc(S(=O)(=O)Nc2ccc(-c3ccc4c(c3)NC(=O)/C4=C\c3ccc[nH]3)cc2)cc1 ?
Marked response: true
